Test system: HCT-116 colon
Test: NCI-60 one-dose screen, 48 h (100 = growth as untreated, 0 = no growth, -100 = all killed)
Conditions: 10 µM unless noted
About 83,000 compounds went through this panel and 20% of them were active in at least one assay; those are over-represented in the sample as a whole.
Param threshold (50%) applies to growth; output Criterion met when value >= threshold, Criterion not met when value < threshold.

Solved entries (count: 3):
>  <compound>
COc1ccc(-c2nc(/C=N/Nc3cc(C)nc4ccc(Cl)cc34)c(C)o2)cc1

>  <groupLabel>
Criterion not met

$$$$
>  <compound>
CC(C)(C)c1[nH]nc2c1C(c1cc3ccccc3[nH]c1=O)Nc1cc(C(=O)Nc3ccc(Cl)cc3)ccc1N2 (stereo not given)

>  <groupLabel>
Criterion not met

$$$$
>  <compound>
CC1CN(c2oc(-c3ccccc3)nc2C#N)CC(C)O1 (stereo not given)

>  <groupLabel>
Criterion met

$$$$

-- ask Is reported growth greater than or equal to 50% here: Cc1cc(N/N=C/c2nc(-c3ccc(Br)cc3)oc2C)c2cc(Br)ccc2n1
-- reply Criterion not met

-- ask Also OC(c1cc2cc(Br)ccc2c2cc(Br)ccc12)C1CCCCN1 (stereo not given) ?
-- reply Criterion not met

====

System: SF-295 CNS
Assay: NCI-60 one-dose screen, 48 h
Conditions: 10 µM unless noted
This is part of a sample that, as a whole, favours compounds with a hit. Of some 83,000 tested, about 20% had one in any assay. Active and inactive are the calls of the source. How the source made its calls: active means growth percent below 10; inactive means the rest.
Form entry, call: pick from yes (1) for active, no (0) for inactive

-- ask Please let me know the test result on file for COc1ccc(-c2c(N)n[nH]c2-c2cc3c(c(OC)c2OC)OCO3)cc1 .
-- reply no (0)

-- ask Follow-up entry: O=[N+]([O-])c1cccc(-c2nc3sccn3c2-c2ccnc(NCCCNS(=O)(=O)c3ccc(C(F)(F)F)cc3)n2)c1
-- reply no (0)

-- ask Next entry: C=C1CCC2C(C)(CO)C(O)CCC2(C)C1C/C=C1/C(=O)OCC1O/C=C/c1ccccc1 (centres undefined)
-- reply no (0)

-- ask Let us now turn to CCN1C(=O)N(CC)C2C1NN=c1s/c(=C\c3cccnc3)c(=O)n12 (centres undefined)
-- reply no (0)

-- ask Let us now turn to COc1ccc(C(=O)c2cc(OC)c3c(c2)OCO3)cc1O
-- reply no (0)

-- ask Further, for Cc1cc(N/N=C/c2nc(-c3ccccc3)oc2C)c2cc(Cl)ccc2n1 ?
-- reply yes (1)

-- ask Then this compound: CC(C)(C)n1cc(-c2ccnc(NCCNS(=O)(=O)c3ccc(C(F)(F)F)cc3)c2)c(-c2cccc(O)c2)n1
-- reply no (0)

-- ask What do you have for C=C1CCC2C3(C)COC(c4ccccc4)OC3CCC2(C)C1/C=C/C1=CCOC1=O (centres undefined) ?
-- reply no (0)

-- ask Follow-up item: C/C=C(\C)C(C(=O)NC1CCCCC1)N(C(=O)C1CCc2cc(F)ccc2O1)c1ccc(Cl)cc1 (centres undefined)
-- reply no (0)

-- ask What about N=c1ccc2nc3ccc(N)cc3sc-2c1 ?
-- reply no (0)

-- ask Item: COc1ccc(C(=O)N2NC(=O)/C(=C/c3ccccc3F)N=C2c2ccccc2)cc1
-- reply no (0)

-- ask Ok, now Cc1ccc(S(=O)(=O)NC(=O)n2cc(-c3ccncc3)c(-c3ccc(Cl)c(O)c3)n2)cc1
-- reply no (0)

-- ask Can you check O=[N+]([O-])c1cc(S(=O)(=O)Oc2ccccc2)ccc1Cl next?
-- reply no (0)
